assay: Acute lethality, single intraperitoneal injection (Table XIII); type: in vivo
Please go through the items and note down their LD10.
Answers are plain numbers, in mg/kg.

Some solved cases for reference:
NC1CCCCC1N.O.O.O=C([O-])CN(CC(=O)[O-])c1ccccc1.[Pt+2] [Compound 37]; 56
O.O.O=C([O-])C[N-]CC(=O)O.[NH-]C1CCCCC1[NH-].[Pt] [Compound 11, iminodiacetato(DACH)Pt(II).2H2 O]; 53
NC1CCCCC1N.O=C([O-])CN(CC(=O)[O-])Cc1ccccc1.[Pt+2] [Compound 38, N--Benzyliminodiacetato(DACH)Pt(II)]; 81
CN(CC(=O)[O-])CC(=O)[O-].NC1CCCCC1N.O.[Pt+2] [Compound 28]; 49

With those in mind, consider the next molecule.
Input: Which value of LD10 has been reported for NC1CCCCC1N.O.O.O=C([O-])CN(CCO)CC(=O)[O-].[Pt+2] [Compound 39] in the records?
Output: 63

----------
assay: BUN (RUN [sic]) with the acute lethality data (Table XIII); format: in vivo; settings: mean + 1 S.D.
Please go through the items and note down their RUN.
Numbers only, in mg/100 ml.

Some solved cases for reference:
O.O.O=C([O-])C[N-]CC(=O)O.[NH-]C1CCCCC1[NH-].[Pt]; 23
NC1CCCCC1N.O=C([O-])CN(CC(=O)[O-])Cc1ccccc1.[Pt+2]; 27
CN(CC(=O)[O-])CC(=O)[O-].NC1CCCCC1N.O.[Pt+2]; 22
NC1CCCCC1N.O.O.O=C([O-])CN(CCO)CC(=O)[O-].[Pt+2]; 18

With those in mind, consider the next compound.
Input: Which value of RUN has been reported for "NC1CCCCC1N.O.O.O=C([O-])CN(CC(=O)[O-])c1ccccc1.[Pt+2]" in the records?
Output: 18

----------
Please go through the items and note down their DEATHS/TREATED.
tested on: Male albino mice; assay: Acute toxicity, single intraperitoneal injection (Example 19); type: in vivo; conditions: single i.p., 125 mg/kg

O.O.O=C([O-])C[N-]CC(=O)O.[NH-]C1CCCCC1[NH-].[Pt] [Compound 11, iminodiacetato(DACH)Pt(II).2H2 O]; 5/6

Would you mind listing DEATHS/TREATED for each of the following compounds?
1. N[C@H]1CCCC[C@@H]1N.O=C1O[C@H]([C@@H](O)CO)C([O-])=C1O.O=C1O[C@H]([C@@H](O)CO)C([O-])=C1O.[Pt+2] [Compound 5]
2. NC1CCCCC1N.O=C1O[C@H]([C@@H](O)C(=O)[O-])[C@H](O)[C@H]1O.O=C1O[C@H]([C@@H](O)C(=O)[O-])[C@H](O)[C@H]1O.[Pt+2] [Compound 9]
3. NC1CCCCC1N.O.O=C1OC(C(O)CO)C([O-])=C1O.O=C1OC(C(O)CO)C([O-])=C1O.[Pt+2] (stereo not drawn) [Compound 3, cis-bis-ascorbato(DACH)Pt(II).1H2 O]

Output:
1. 6/6
2. 3/6
3. 2/6

----------
Test system: L1210 cells
Test: In vivo anti-tumor activity, L1210, single i.p. injection
Parameters: species or system BDF1 mice
Details: single i.p., 50 mg/kg
Experimental: About 24 hours after inoculation of the cells, the mice were injected intraperitoneally with varying dosages of complexes of the present invention. […] Long term survival signifies that animals were alive 60 days after inoculation with L1210 cells.
Please go through the items and note down their % T/C.
Answers are plain numbers, in %.

Some solved cases for reference:
NC1CCCCC1N.O.O=C([O-])C1CCCC1.O=C([O-])C1CCCC1.[Pt+2] (stereo not shown); 163
NC1CCCCC1N.O.O.O=C([O-])C1CCCN1.O=C([O-])C1CCCN1.[Pt+2] (stereo not shown); 149
NC1CCCCC1N.O=C([O-])[C@@H]1CCC[C@H]1C(=O)[O-].[Pt+2] (racemic); 183
NC1CCCCC1N.O.O=C1CC(C(=O)[O-])C(C(=O)[O-])O1.[Pt+2] (racemic); 145

With those in mind, consider the next compound.
Input: Which value of % T/C has been reported for NC1CCCCC1N.O=C([O-])C1CCCN1.O=C([O-])C1CCCN1.[Pt+2] [Compound 16, cis-bis-L-prolinato(DACH)Pt(II)] in the records?
Output: 165
